Target: ROCK1 (Homo sapiens (Human), UniProt Q13464)
Sequence (Q13464 whole entry, species assumed): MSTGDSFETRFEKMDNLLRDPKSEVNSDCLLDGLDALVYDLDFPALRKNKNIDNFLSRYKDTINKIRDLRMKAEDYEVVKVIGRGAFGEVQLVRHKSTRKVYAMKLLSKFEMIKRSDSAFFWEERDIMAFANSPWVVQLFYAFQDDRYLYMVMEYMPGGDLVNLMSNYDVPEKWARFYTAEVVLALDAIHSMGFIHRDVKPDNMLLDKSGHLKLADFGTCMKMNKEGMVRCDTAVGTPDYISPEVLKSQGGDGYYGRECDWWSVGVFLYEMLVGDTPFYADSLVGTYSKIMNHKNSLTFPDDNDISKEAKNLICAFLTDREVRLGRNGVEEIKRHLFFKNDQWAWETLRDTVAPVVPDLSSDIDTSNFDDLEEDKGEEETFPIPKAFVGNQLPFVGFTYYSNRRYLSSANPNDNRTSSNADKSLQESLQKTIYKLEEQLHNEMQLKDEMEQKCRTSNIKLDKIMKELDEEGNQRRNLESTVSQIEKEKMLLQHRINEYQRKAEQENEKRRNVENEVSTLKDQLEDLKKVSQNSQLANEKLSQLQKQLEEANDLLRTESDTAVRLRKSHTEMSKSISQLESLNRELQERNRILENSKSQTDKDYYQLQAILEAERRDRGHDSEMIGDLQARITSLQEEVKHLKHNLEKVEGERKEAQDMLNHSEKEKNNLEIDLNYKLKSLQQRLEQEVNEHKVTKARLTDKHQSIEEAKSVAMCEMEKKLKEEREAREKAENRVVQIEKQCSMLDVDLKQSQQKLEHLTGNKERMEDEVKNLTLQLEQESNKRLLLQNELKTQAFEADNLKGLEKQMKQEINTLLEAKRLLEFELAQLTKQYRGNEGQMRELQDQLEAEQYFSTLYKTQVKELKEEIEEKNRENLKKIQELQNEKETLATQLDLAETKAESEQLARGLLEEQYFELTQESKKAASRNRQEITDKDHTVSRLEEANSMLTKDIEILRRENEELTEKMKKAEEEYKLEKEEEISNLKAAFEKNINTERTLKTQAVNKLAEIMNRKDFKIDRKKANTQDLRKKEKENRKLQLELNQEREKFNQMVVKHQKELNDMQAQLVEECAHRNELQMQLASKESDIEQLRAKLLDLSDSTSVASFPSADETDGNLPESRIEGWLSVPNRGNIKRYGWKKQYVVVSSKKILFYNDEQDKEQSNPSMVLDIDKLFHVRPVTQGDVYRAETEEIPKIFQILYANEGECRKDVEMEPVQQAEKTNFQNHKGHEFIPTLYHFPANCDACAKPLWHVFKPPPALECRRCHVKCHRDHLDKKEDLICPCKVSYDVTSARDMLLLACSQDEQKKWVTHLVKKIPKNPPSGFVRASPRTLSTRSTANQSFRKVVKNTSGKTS
Experiment: ROCK assay (LABCHIP peptide phosphorylation), ROCK1
Type: biochemical
Details: 5 μM ATP, 1.5 μM peptide substrate; read-out: ROCK1 IC50
QUANTITY KIND: IC50

1) O=C(Nc1ccc(-c2n[nH]c(=O)c3ccccc23)cc1)c1csc(-c2ccc(C(F)(F)F)cc2)n1 [Example 48]: 101 to 1000 nM
2) CN(C)CCOc1ccc2c(c1)N(C(=O)Cc1ccc(-c3n[nH]c(=O)c4ccccc34)cc1)CC2 [Example 279]: 101 to 1000 nM

input: Look up and report IC50, with ROCK1 (Homo sapiens (Human), UniProt Q13464) as system, for O=C(Nc1ccc(-c2n[nH]c(=O)c3ccccc23)cc1)c1nn(CC2COC2)c2cc(F)ccc12 [Example 159]
output: 0.1 to 100 nM

input: Look up and report IC50, with ROCK1 (Homo sapiens (Human), UniProt Q13464) as system, for CC(C)N1CC(C(=O)Nc2ccc(-c3n[nH]c(=O)c4ccccc34)cc2)CC1=O (stereo not shown) [Example 218]
output: 1000 to 50000 nM

input: Look up and report IC50, with ROCK1 (Homo sapiens (Human), UniProt Q13464) as system, for Cn1nc(C(=O)Nc2ccc(-c3n[nH]c(=O)c4ccccc34)cc2)c2ccccc21 [Example 98]
output: 0.1 to 100 nM

input: Look up and report IC50, with ROCK1 (Homo sapiens (Human), UniProt Q13464) as system, for COc1ccc2c(c1)CN(C(=O)Cc1ccc(-c3n[nH]c(=O)c4ccccc34)cc1)C2 [Example 3]
output: 101 to 1000 nM

input: Look up and report IC50, with ROCK1 (Homo sapiens (Human), UniProt Q13464) as system, for O=c1[nH]nc(-c2ccc(Nc3ncc(-c4ccccc4)o3)cc2)c2ccccc12 [Example 73]
output: 101 to 1000 nM

input: Look up and report IC50, with ROCK1 (Homo sapiens (Human), UniProt Q13464) as system, for Cc1c(C(=O)Nc2ccc(-c3n[nH]c(=O)c4ccccc34)cc2)nnn1-c1cccc(C(F)(F)F)c1 [Example 232]
output: 101 to 1000 nM

input: Look up and report IC50, with ROCK1 (Homo sapiens (Human), UniProt Q13464) as system, for O=C(Cc1ccc(-c2n[nH]c(=O)c3ccccc23)cc1)N1CCC(c2ccccc2)CC1 [Example 11]
output: 1000 to 50000 nM

input: Look up and report IC50, with ROCK1 (Homo sapiens (Human), UniProt Q13464) as system, for O=C(Cc1ccc(-c2n[nH]c(=O)c3ccccc23)cc1)NC1CCC1 [Example 19]
output: 1000 to 50000 nM

input: Look up and report IC50, with ROCK1 (Homo sapiens (Human), UniProt Q13464) as system, for Cn1nc(C(=O)Nc2ccc(-c3n[nH]c(=O)c4ccccc34)cc2)cc1-c1ccccc1 [Example 207]
output: 0.1 to 100 nM

input: Look up and report IC50, with ROCK1 (Homo sapiens (Human), UniProt Q13464) as system, for COc1ccc2c(-c3ccc(NC(=O)c4cn5ccccc5n4)cc3)n[nH]c(=O)c2c1 [Example 370]
output: 1000 to 50000 nM

input: Look up and report IC50, with ROCK1 (Homo sapiens (Human), UniProt Q13464) as system, for COc1cccc2cc(C(=O)Nc3ccc(-c4n[nH]c(=O)c5ccccc45)c(C)c3)[nH]c12 [Example 309]
output: 0.1 to 100 nM

input: Look up and report IC50, with ROCK1 (Homo sapiens (Human), UniProt Q13464) as system, for COc1cccc(-n2cc(C(=O)Nc3ccc(-c4n[nH]c(=O)c5ccccc45)cc3)cn2)c1 [Example 203]
output: 101 to 1000 nM

input: Look up and report IC50, with ROCK1 (Homo sapiens (Human), UniProt Q13464) as system, for COc1cc2c(-c3ccc(CC(=O)N4Cc5ccccc5C4)cc3)c[nH]c(=O)c2cc1OC [Example 255]
output: 1000 to 50000 nM

input: Look up and report IC50, with ROCK1 (Homo sapiens (Human), UniProt Q13464) as system, for COc1cc2cc(C(=O)Nc3ccc(-c4n[nH]c(=O)c5ccccc45)cc3)oc2cc1F [Example 180]
output: 0.1 to 100 nM
